Reference for the values: PubChem BioAssay (NCI)

// reported TGI for each item listed
# Test system: SK-MEL-28 melanoma
# Assay Protocol: NCI tumour cell line growth inhibition, 48 h

{"Record Smiles": "COc1cc(CCNC2=CC(=O)c3cccnc3C2=O)ccc1O", "Assay Result": "2.56 µM"}
{"Record Smiles": "CCCCCCCCCNCCCCCCCCC", "Assay Result": "3.29 µM"}
{"Record Smiles": "CC(/C=N/N(C)C1=NCCCCN1)=N/N(C)C1=NCCCCN1", "Assay Result": "> 100 µM"}

Query: Requested field: TGI. Item: O=C(CNC(=O)OCc1ccccc1)Oc1ccccc1
Reply: > 100 µM

Query: Next compound: COc1ccccc1C1=C2C(=O)N(C)C(c3ccccc3OC)=C2C(=O)N1C
Reply: > 100 µM

Query: Next compound: Nc1nc2cc(CNc3ccc(C(=O)O)cc3)ccc2nc1-c1ccccc1
Reply: > 100 µM

Query: Next compound: N#Cc1ccc(/C=N/NC(=O)CSCC(=O)N/N=C/c2ccc(C#N)cc2)cc1
Reply: > 100 µM
